Data origin: a melting point compilation (Tetko et al.; mined from patent text by program, amines drawn as free bases though some values may be those of a salt)

melting point values by entry

Example compounds with recorded melting point:
| COMPOUND | melting point |
| --- | --- |
| CC(C)c1cc(C(C)C)c(CC(=O)NS(=O)(=O)Oc2c(C(C)C)cc(C#N)cc2C(C)C)c(C(C)C)c1 | 79 to 84 °C |
| CCCCCCCCC(CC(=O)Nc1ccccc1)CC(C)[N+](=O)[O-] (stereo not given) | 71 to 72 °C |
| CC(C)OC(=O)N1CCC(c2nc3cc(-c4ccc(C(F)(F)F)cc4)ccc3o2)CC1 | 123 to 126 °C |
| CCc1nnc2c(O)nc3cc(OC)ccc3n12 | > 250 °C |
| COc1ccc(C(=O)Cc2c(Cl)cccc2Cl)c2c1OCCO2 | 154 to 155 °C |
| O=c1c(CCO)c(O)c2cccnc2n1-c1cccc([N+](=O)[O-])c1 | 244 to 245 °C |
| CCc1n[nH]c(=O)c2c(C)ncn12 | 175 to 178 °C |
| COC(=O)Cn1c(Cc2ccccc2)ccc(NC(=O)CCCc2ccccc2)c1=O | 93 to 95 °C |
| CC(=O)OC1CSC(Oc2cccc(-c3cc(C)ccn3)c2)C(OC(C)=O)C1OC(C)=O (stereo not given) | 116 °C |
| C[C@@H](O[Si](C)(C)C(C)(C)C)[C@H]1C(=O)N[C@@H]1[C@@H](C)C(=O)C(C)(C)O[Si](C)(C)C | 162 °C |

Record O=C1c2ccc(Nc3ccc(F)cc3F)cc2CCc2ccc(OCCCN3CCOCC3)cc21 . Reported melting point: 114 °C

Record Cc1ccnc(C(O)c2cc(F)ccc2F)c1 (stereo not given) . Reported melting point: 105 to 106 °C

Record CCOCc1nc2c(N)nc3cc(OCc4ccccc4C)ccc3c2n1CC(C)C . Reported melting point: 216 to 218 °C

Record COc1cc([N+](=O)[O-])c2c(c1OC)C(=O)CC2 . Reported melting point: 202 to 204 °C

Record COc1cc2c(c(OC)c1OC)C1=C(CCC1)C(=O)CC2 . Reported melting point: 101 to 102 °C

###

PARAMETER_MEASURED: melting point

Example compounds with recorded melting point:
| COMPOUND | PARAMETER_MEASURED | VALUE_REPORTED |
| --- | --- | --- |
| CCc1ncc([N+](=O)[O-])n1CCS(=O)(=O)CC | melting point | 130 to 140 °C |
| O=C(c1cc(O)c(O)c([N+](=O)[O-])c1)c1cccs1 | melting point | 155 to 157 °C |
| CCOC(=O)c1cn(CCO)c2cc(Cl)c(F)cc2c1=O | melting point | 202 °C |
| O=S1(=O)CCCc2[nH]c3ccccc3c2CC1 | melting point | 207 to 208 °C |
| Cc1c(C(=O)N[C@H](C(=O)O)c2ccc(OCc3ccccc3)cc2)oc2cc(-c3ccc(Cl)cc3)ccc12 | melting point | 178 °C |
| CC(O)c1cc(F)ccc1Oc1nc2ccc(NC(=O)Nc3cccc([N+](=O)[O-])c3)cc2cc1Cc1ccccc1 (stereo not given) | melting point | 217 to 219 °C |
| CCOC(=O)C=Cc1ccc(NC(C)=O)cc1 | melting point | 126 to 127 °C |
| COc1ccc(NC(=O)CC23CC4CC(CC(C4)C2)C3)c(C)c1 | melting point | 156 to 157 °C |
| CCNc1cc(OC)c(C(F)(F)F)cc1[N+](=O)[O-] | melting point | 140 to 142 °C |
| O=C(O)c1cn(-c2cc(O)c(F)cc2[N+](=O)[O-])c2c(Cl)c(F)c(F)cc2c1=O | melting point | 248 to 255 °C |

# input for lookup
Record O=S(=O)(c1ccccc1)c1ccc2c(c1)[C@@H](O)[C@H](Br)CCO2 (relative stereo) . Reported melting point: 190 to 193 °C
